Just for reference, the Immune Epitope Database (IEDB) is where these values come from.

Target: HLA-A*33:01
Assay: IEDB peptide-MHC binding, purified MHC/competitive/radioactivity; filed as Kd, often an IC50 or EC50 that approximates it; bounds were set here for any values at or beyond the usual limits of such assays
Details: source organism: SARS coronavirus Tor2
pKd: −log10 of the molar value.
measurement_label: pKd

| ordered_residues | result |
| --- | --- |
| LQFTSLEIPR | 5.92 |
| DVFHLYLQY | 5.26 |
| RQLFKPLTKK | 5.44 |
| QSQMLLIVLK | 4.93 |

###

Target: HLA-A*33:01
Assay: IEDB peptide-MHC binding, purified MHC/competitive/radioactivity; filed as Kd, often an IC50 or EC50 that approximates it; bounds were set here for any values at or beyond the usual limits of such assays
Conditions: source organism: Vaccinia virus WR
pKd: −log10 of the molar value.

| ordered_residues | experimental_target | value_relation_sign | pKd |
| --- | --- | --- | --- |
| FITKEIKNR | HLA-A*33:01 | = | 5.22 |
| HSNLTETFR | HLA-A*33:01 | = | 8.31 |
| CICYGSYSLY | HLA-A*33:01 | = | 5.69 |
| QALNSVANR | HLA-A*33:01 | = | 6.98 |
| ELQSVLVTTY | HLA-A*33:01 | ≤ | 4.21 |

###

Target: HLA-A*68:01
Experiment: IEDB peptide-MHC binding, purified MHC/competitive/radioactivity; filed as Kd, often an IC50 or EC50 that approximates it; bounds were set here for any values at or beyond the usual limits of such assays
Conditions: source organism: Vaccinia virus WR
measurement_label: Kd (nM)

| ordered_residues | experimental_target | measurement_label | units_label | result |
| --- | --- | --- | --- | --- |
| ITTLLNETAK | HLA-A*68:01 | Kd | nM | 11.4 |
| VLDIISSKQY | HLA-A*68:01 | Kd | nM | 1390 |
| FSAGAGVLDK | HLA-A*68:01 | Kd | nM | 15 |

###

Measured Kd values are reported for all entries that follow.
Biological target: HLA-A*01:01
Assay: IEDB peptide-MHC binding, purified MHC/competitive/radioactivity; filed as Kd, often an IC50 or EC50 that approximates it; bounds were set here for any values at or beyond the usual limits of such assays
Details: source organism: SARS coronavirus Tor2

| ordered_residues | Kd |
| --- | --- |
| ELSPRWYFY | ≥ 35 µM |
| FYAYLRKHF | ≥ 78.1 µM |
| PYNSVTDTI | ≥ 78.1 µM |

###

Molecular target: HLA-A*68:01
Assay: IEDB peptide-MHC binding, purified MHC/competitive/radioactivity; filed as Kd, often an IC50 or EC50 that approximates it; bounds were set here for any values at or beyond the usual limits of such assays
Details: source organism: SARS coronavirus Tor2
Measured Kd values are reported for all entries that follow.

| ordered_residues | Kd |
| --- | --- |
| TVVQRCASNK | 122 nM |
| GLALYYPSAR | 89.8 nM |
| AISDYDYYR | 118 nM |

###

Biological target: HLA-A*26:01
Assay: IEDB peptide-MHC binding, purified MHC/competitive/radioactivity; filed as Kd, often an IC50 or EC50 that approximates it; bounds were set here for any values at or beyond the usual limits of such assays
Conditions: source organism: SARS coronavirus Tor2
Measured Kd values are reported for all entries that follow.

| ordered_residues | experimental_target | Kd |
| --- | --- | --- |
| AMQKESDDY | HLA-A*26:01 | ≥ 65.3 µM |
| AMGKPVPYCY | HLA-A*26:01 | ≥ 49.4 µM |
| FYAYLRKHF | HLA-A*26:01 | ≥ 77.9 µM |
| PYNSVTDTI | HLA-A*26:01 | ≥ 77.9 µM |

###

Measured pKd values are reported for all entries that follow.
Molecular target: HLA-A*03:01
Assay: IEDB peptide-MHC binding, purified MHC/competitive/radioactivity; filed as Kd, often an IC50 or EC50 that approximates it; bounds were set here for any values at or beyond the usual limits of such assays
Conditions: source organism: Vaccinia virus WR
pKd: −log10 of the molar value.

| ordered_residues | pKd |
| --- | --- |
| QALNSVANR | ≤ 4.69 |
| NIERQDYRR | ≤ 4.18 |
| ELESLSKRER | ≤ 4.15 |
| WIKNLETYTR | ≤ 4.39 |
| NIRLTDTEYR | ≤ 4.15 |
| KSLLLLNTR | 6.16 |
| EINEWLSSK | 6.70 |
| PVDTEFINK | 4.70 |

###

Molecular target: HLA-A*02:02
Assay: IEDB peptide-MHC binding, purified MHC/competitive/radioactivity; filed as Kd, often an IC50 or EC50 that approximates it; bounds were set here for any values at or beyond the usual limits of such assays
Details: source organism: Vaccinia virus WR
Measured Kd values are reported for all entries that follow.

| ordered_residues | units_label | value_relation_sign | Kd |
| --- | --- | --- | --- |
| LTGNNTITT | µM | = | 5.75 |
| AVITETIPI | µM | = | 0.324 |
| AFVRFSTDK | µM | ≥ | 77.8 |
| LLPLTSLVIT | µM | = | 0.999 |
| NTCKPTILAT | µM | = | 0.46 |
| HAKYMVTDKT | µM | = | 9.03 |
| MAFILGIII | µM | = | 9.53 |
| SIMSMMNIT | µM | = | 4.97 |
| YALEPRKEI | µM | = | 3.7 |
| SVNASKTINA | µM | = | 17.3 |

###

Measured Kd values are reported for all entries that follow.
Molecular target: HLA-A*31:01
Assay: IEDB peptide-MHC binding, purified MHC/competitive/radioactivity; filed as Kd, often an IC50 or EC50 that approximates it; bounds were set here for any values at or beyond the usual limits of such assays
Settings: source organism: SARS coronavirus Tor2

| ordered_residues | Kd [nM] |
| --- | --- |
| AISDYDYYR | 26 |
| TVVQRCASNK | 224 |
| LQFTSLEIPR | 30.5 |
| CVFAYVGCY | 11900 |
| GLALYYPSAR | 993 |
| VLAAECTIFK | 133 |
| QSQMLLIVLK | 1410 |
| STRHPSKLR | 9.74 |
| SVSPKLFIR | 116 |
| LSAGVEFLK | 776 |
| AAYFVGYLK | 178 |
| DVFHLYLQY | 4240 |
